FYI, the data here is from ChEMBL document CHEMBL2203050.

- Assay Name: Cytotoxicity against human TZM-b1 cells
- Assay type: cell-based
Readout Label: CC50 (µM)
One number for each entry, in µM.

stdin: Field request: CC50 | item: Cc1cc(C)c(Nc2ccnc(Nc3ccc(C#N)cc3)n2)c(C)c1
stdout: 2.88

----------
- Test system: Human immunodeficiency virus 1
- Assay Name: Antiviral activity against HIV1 harboring reverse transcriptase VI829/Y181C mutant
- Type: functional, organism-based
Readout Label: pEC50
Numbers only, as −log10 of the molar value.

stdin: Field request: pEC50 | item: Cc1cc(C)c(Nc2ccnc(Nc3ccc(C#N)cc3)n2)c(C)c1 [DAPIVIRINE]
stdout: 7.97
